Several publications report pKi on D(3) dopamine receptor (Homo sapiens); those values are gathered here.
Sequence (P35462 whole entry): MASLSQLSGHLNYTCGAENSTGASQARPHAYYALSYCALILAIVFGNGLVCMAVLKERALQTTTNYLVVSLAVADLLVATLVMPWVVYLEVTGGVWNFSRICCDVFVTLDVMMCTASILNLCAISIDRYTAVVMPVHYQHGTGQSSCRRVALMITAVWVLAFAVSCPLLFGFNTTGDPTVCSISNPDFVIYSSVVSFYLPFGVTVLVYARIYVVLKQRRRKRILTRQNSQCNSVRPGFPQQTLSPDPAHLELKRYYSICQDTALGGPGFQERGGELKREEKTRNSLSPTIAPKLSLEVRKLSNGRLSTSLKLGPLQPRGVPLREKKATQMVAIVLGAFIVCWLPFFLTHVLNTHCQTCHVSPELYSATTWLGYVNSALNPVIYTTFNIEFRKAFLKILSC
pKi: −log10 of the molar value.
ENDPOINT LABEL: pKi

{"columns": ["MOLECULE", "OP", "VALUE OBSERVED"],
 "data": [
  ["COc1ccccc1N1CCN(C/C=C/CNC(=O)c2cc3cc(OCCF)ccc3[nH]2)CC1", "=", 8.43],
  ["Clc1cccc(N2CCN(CCCCOc3cc4ccccc4cn3)CC2)c1Cl", "=", 7.48],
  ["c1cnc(N[C@H]2CC[C@H](CCN3CCc4ccccc4C3)CC2)nc1", "=", 7.40],
  ["C=CCN1CC[C@H](OCCCN)[C@H]1CNC(=O)c1cc(CCCF)cc(OC)c1OC", "=", 8.21],
  ["OCc1cc2cc(OCCCCN3CCN(c4cccc(Cl)c4Cl)CC3)ccn2n1", "=", 8.89],
  ["O=C1c2ccccc2C(=O)N1CCCCN1CCN(c2cccc(F)c2F)CC1", "=", 7.71],
  ["COc1ccccc1N1CCN(CC(O)CCn2cc(-c3ccc4c(c3)Cc3ccccc3-4)nn2)CC1 (racemic)", "=", 7.73],
  ["CCCN(CCCCNC(=O)c1ccc(-c2ccccc2)cc1)C1CCc2ncnc(OC)c2C1 (centres undefined)", "=", 8.50],
  ["Oc1ccccc1OCCNCc1ccccc1", "=", 6.55],
  ["Clc1cccc(N2CCN(CCCCOc3ccc(-c4cn5ccccc5n4)cc3)CC2)c1Cl", "=", 7.42],
  ["O=C(CCC(=O)OC1(c2ccc(Cl)cc2)CCN(CCCC(=O)c2ccc(F)cc2)CC1)OC1(c2ccc(Cl)cc2)CCN(CCCC(=O)c2ccc(F)cc2)CC1", "=", 7.85],
  ["Cn1ccc2cc3c(cc21)CCN3C(=O)Nc1cccnc1", "<", 5.00],
  ["Clc1cccc(N2CCN(CCCCn3cc(-c4ccc(-c5ccccc5)cc4)nn3)CC2)c1Cl", "=", 8.08],
  ["OC1(c2ccc(Cl)cc2)CCN(Cc2coc3ccccc23)CC1", "=", 7.28],
  ["COc1ccccc1N1CCN(CCCCNC(=O)/C=C/c2cccc(Cl)c2)CC1", "=", 9.34],
  ["COc1cc(C(=O)NCCCCN2CCN(c3ccccc3OC)CC2)ccc1OCCCc1cn(CCCCCCCCn2cc(CCCOc3ccc(C(=O)NCCCCN4CCN(c5ccccc5OC)CC4)cc3OC)nn2)nn1", "=", 7.92],
  ["CN1CCCC[C@H]1CCN1c2ccccc2Sc2ccc([S@](C)=O)cc21", "=", 6.71],
  ["COc1ccc2onc(N3CCN(CCCCNC(=O)c4cccc(-c5noc(C)n5)c4)CC3)c2c1", "=", 5.89],
  ["COc1ccccc1N1CCN(CCCc2cn(-c3ccc(SC)cc3)nn2)CC1", "=", 8.02]
]}
